target: Endothelin receptor type B (Rattus norvegicus); test: Binding affinity against endothelin B receptor rat cerebellar membranes.
Sequence (P21451 whole entry): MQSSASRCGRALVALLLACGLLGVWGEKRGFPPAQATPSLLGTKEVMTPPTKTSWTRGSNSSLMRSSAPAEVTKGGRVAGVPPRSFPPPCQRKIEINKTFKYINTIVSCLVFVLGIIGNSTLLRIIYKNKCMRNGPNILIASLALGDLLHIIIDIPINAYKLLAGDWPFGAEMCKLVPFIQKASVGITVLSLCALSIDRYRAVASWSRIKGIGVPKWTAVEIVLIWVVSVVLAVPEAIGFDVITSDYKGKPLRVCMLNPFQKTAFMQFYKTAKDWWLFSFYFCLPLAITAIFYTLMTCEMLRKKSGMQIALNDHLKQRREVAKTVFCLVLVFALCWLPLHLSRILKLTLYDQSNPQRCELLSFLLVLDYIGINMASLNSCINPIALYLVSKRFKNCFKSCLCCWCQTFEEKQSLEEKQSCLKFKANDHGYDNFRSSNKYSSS
Numbered stars: 1 amine (or outer) side, 2 acyl side, 3 side chain; on linkers, the order of the positions; unused ones are H or OH. Square brackets hold non-standard residues; d marks the D form. Peptide text beside a SMILES is read from it. * marks the point of attachment. X3 = O=C([C@@H](N[*:1])C(c1ccccc1)(c1ccccc1)c1ccccc1)[*:2]; Dip = N[C@H](C(=O)O)C(c1ccccc1)c1ccccc1; NHcHex = C1CCC(N*)CC1; CO = O=C([*:1])[*:2]; Piv = CC(C)(C)C(=O)*
PROPERTY_NAME: IC50 (µM)
The reply should contain only the number, in µM.

Before answering, review these 5 worked examples.
{"MOLECULE": "CC[C@H](C)[C@H](NC(=O)[C@H](CC(=O)O)NC(=O)[C@H](CC(C)C)NC(=O)[C@@H](NC(=O)C(C)(C)C)C(c1ccccc1)c1ccccc1)C(=O)N[C@H](C(=O)N[C@@H](Cc1c[nH]c2ccccc12)C(=O)O)[C@@H](C)CC (Piv-[Dip]LDIIW-OH)", "MEASURED": 0.4}
{"MOLECULE": "CC[C@H](C)[C@H](NC(=O)[C@H](CC(=O)O)NC(=O)[C@H](CC(C)C)NC(=O)[C@@H](NC(C)=O)C(c1ccccc1)c1ccccc1)C(=O)N[C@H](C(=O)N[C@@H](Cc1c[nH]c2ccccc12)C(=O)O)C(C)C (Ac-[Dip]LDIVW-OH)", "MEASURED": 1.4}
{"MOLECULE": "CC[C@H](C)[C@H](NC(=O)[C@H](CC(=O)O)NC(=O)[C@H](CC(C)C)NC(=O)[C@@H](NC(C)=O)C(c1ccccc1)(c1ccccc1)c1ccccc1)C(=O)N[C@H](C(=O)N[C@@H](Cc1c[nH]c2ccccc12)C(=O)O)[C@@H](C)CC (Ac-[X3]LDIIW-OH)", "MEASURED": 5.9}
{"MOLECULE": "CC[C@H](C)[C@H](NC(=O)[C@@H](NC(=O)[C@H](CC(=O)O)NC(=O)[C@H](CC(C)C)NC(=O)[C@@H](NC(C)=O)C(c1ccccc1)c1ccccc1)C(C)C)C(=O)N[C@@H](Cc1c[nH]c2ccccc12)C(=O)O (Ac-[Dip]LDVIW-OH)", "MEASURED": 0.051}
{"MOLECULE": "CC[C@H](C)[C@H](NC(=O)[C@H](CC(=O)O)NC(=O)[C@H](CC(C)C)NC(=O)[C@H](NC(C)=O)C(c1ccccc1)c1ccccc1)C(=O)N[C@H](C(=O)N[C@@H](Cc1ccccc1)C(=O)O)[C@@H](C)CC", "MEASURED": 6.8}

We next turn to a different molecule, shown below.
Qu. Look up IC50 of CC[C@H](C)[C@H](NC(=O)[C@H](CC(=O)O)NC(=O)[C@H](CC(C)C)NC(=O)[C@@H](NC(=O)NC1CCCCC1)C(c1ccccc1)c1ccccc1)C(=O)N[C@H](C(=O)N[C@@H](Cc1c[nH]c2ccccc12)C(=O)O)[C@@H](C)CC ({NHcHex-CO}-[Dip]LDIIW-OH) and report it.
Ans. 0.068
